Test system: human intestinal adenocarcinoma cell line HCT-8
Experiment: MTT assay, inhibitory activity against growth of cancer cells
Assay type: cell-based
Details: Dosage 5 μg/ml, 72 h incubation
Description: The inhibitory activity of these chair ruthenium(II) complexes have been evaluated by MTT assay by using 5-fluorouracil (5-Fu) as positive control. Human hepatocarcinoma cell line Bel-7402, human intestinal adenocarcinoma cell line HCT-8 and Human lung adenocarcinoma epithelial cell line A-549 were supplied by the Institute of Materia Medica, Chinese Academy of Medical Sciences & Peking Union Medical College. […]
Quantity name: Inhibitory activity (%) HCT-8
Give the value, in units of %, as a plain number.

Data request: Bench note: what Inhibitory activity (%) HCT-8 did F[P-](F)(F)(F)(F)F.F[P-](F)(F)(F)(F)F.c1cc[n+]2c(c1)-c1cccc[n+]1[Ru-4]213([n+]2ccccc2-c2cccc[n+]21)[n+]1ccccc1-c1[nH]c2cc4ccccc4cc2[n+]13 [Λ-4, Λ-[Ru(bpy)2(PYNI)](PF6)2] show?
Data returned: 3.6

Data request: Which measured Inhibitory activity (%) HCT-8 value corresponds to FC(F)(F)c1ccccc1-c1nc2c3ccc[n+]4c3c3c(ccc[n+]3[Ru-4]435([n+]4ccccc4-c4cccc[n+]43)[n+]3ccccc3-c3cccc[n+]35)c2[nH]1.F[P-](F)(F)(F)(F)F.F[P-](F)(F)(F)(F)F [Δ-1, Δ-[Ru(bpy)2(tFPIP)](PF6)2] ?
Data returned: 81.6

Data request: So what's the measured Inhibitory activity (%) HCT-8 for this one? F[P-](F)(F)(F)(F)F.F[P-](F)(F)(F)(F)F.c1cc[n+]2c(c1)-c1cccc[n+]1[Ru-4]213([n+]2ccccc2-c2cccc[n+]21)[n+]1cccc2c4nc(-c5ccc6c(c5)OCCO6)[nH]c4c4ccc[n+]3c4c21 [Λ-3, Λ-[Ru(bpy)2(IPBH)](PF6)2]
Data returned: 2.1

Data request: Endpoint output: Inhibitory activity (%) HCT-8 of F[P-](F)(F)(F)(F)F.F[P-](F)(F)(F)(F)F.c1cc[n+]2c(c1)-c1cccc[n+]1[Ru-4]213([n+]2ccccc2-c2cccc[n+]21)[n+]1ccccc1-c1[nH]c2cc4ccccc4cc2[n+]13 [Δ-4, Δ-[Ru(bpy)2(PYNI)](PF6)2] . Value?
Data returned: 1.8

Data request: Which Inhibitory activity (%) HCT-8 is listed for FC(F)(F)c1ccccc1-c1nc2c3ccc[n+]4c3c3c(ccc[n+]3[Ru-4]435([n+]4ccccc4-c4cccc[n+]43)[n+]3ccccc3-c3cccc[n+]35)c2[nH]1.F[P-](F)(F)(F)(F)F.F[P-](F)(F)(F)(F)F [Λ-1, Λ-[Ru(bpy)2(tFPIP)](PF6)2] ?
Data returned: 83.0

###

tested on: human hepatocarcinoma cell line Bel-7402; assay: MTT assay, inhibitory activity against growth of cancer cells; assay type: cell-based; conditions: Dosage 50 μg/ml, 72 h incubation
Parameter Inhibitory activity (%) BEL-7402: see the listing below.
A number alone suffices; assume %.

>>> value_observed("F[P-](F)(F)(F)(F)F.F[P-](F)(F)(F)(F)F.c1cc[n+]2c(c1)-c1cccc[n+]1[Ru-4]213([n+]2ccccc2-c2cccc[n+]21)[n+]1ccccc1-c1[nH]c2cc4ccccc4cc2[n+]13 [Λ-4, Λ-[Ru(bpy)2(PYNI)](PF6)2]")
22.6
>>> value_observed("F[P-](F)(F)(F)(F)F.F[P-](F)(F)(F)(F)F.c1cc[n+]2c(c1)-c1cccc[n+]1[Ru-4]213([n+]2ccccc2-c2cccc[n+]21)[n+]1ccccc1-c1[nH]c2cc4ccccc4cc2[n+]13 [Δ-4, Δ-[Ru(bpy)2(PYNI)](PF6)2]")
36.0
>>> value_observed("FC(F)(F)c1ccccc1-c1nc2c3ccc[n+]4c3c3c(ccc[n+]3[Ru-4]435([n+]4ccccc4-c4cccc[n+]43)[n+]3ccccc3-c3cccc[n+]35)c2[nH]1.F[P-](F)(F)(F)(F)F.F[P-](F)(F)(F)(F)F [Δ-1, Δ-[Ru(bpy)2(tFPIP)](PF6)2]")
88.3
>>> value_observed("FC(F)(F)c1ccccc1-c1nc2c3ccc[n+]4c3c3c(ccc[n+]3[Ru-4]435([n+]4ccccc4-c4cccc[n+]43)[n+]3ccccc3-c3cccc[n+]35)c2[nH]1.F[P-](F)(F)(F)(F)F.F[P-](F)(F)(F)(F)F [Λ-1, Λ-[Ru(bpy)2(tFPIP)](PF6)2]")
88.8

Data request: State the recorded Inhibitory activity (%) BEL-7402 for this entry: F[P-](F)(F)(F)(F)F.F[P-](F)(F)(F)(F)F.c1cc[n+]2c(c1)-c1cccc[n+]1[Ru-4]213([n+]2ccccc2-c2cccc[n+]21)[n+]1cccc2c4nc(-c5ccc6c(c5)OCCO6)[nH]c4c4ccc[n+]3c4c21 [Λ-3, Λ-[Ru(bpy)2(IPBH)](PF6)2]
Data returned: 44.3
